Target: human Y2 receptor (human) (UniProt P49146)
Sequence (P49146 whole entry): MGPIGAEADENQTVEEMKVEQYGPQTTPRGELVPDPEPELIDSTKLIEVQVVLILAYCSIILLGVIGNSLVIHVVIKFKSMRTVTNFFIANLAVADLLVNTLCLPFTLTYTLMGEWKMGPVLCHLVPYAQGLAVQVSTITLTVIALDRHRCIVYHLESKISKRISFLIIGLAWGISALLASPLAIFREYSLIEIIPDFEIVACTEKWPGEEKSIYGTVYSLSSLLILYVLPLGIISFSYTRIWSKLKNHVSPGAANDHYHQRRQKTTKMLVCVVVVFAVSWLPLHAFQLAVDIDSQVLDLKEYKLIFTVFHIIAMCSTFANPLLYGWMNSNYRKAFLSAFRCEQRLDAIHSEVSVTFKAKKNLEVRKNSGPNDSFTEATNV
Assay: RBA: [125I]-PYY displacement, hY2R/CHO membranes
Non-standard residues stand in square brackets, D forms with d. *: point of attachment. tBuAla = CC(C)(C)C[C@H](N)C(=O)O; 4Pal = N[C@@H](Cc1ccncc1)C(=O)O; Cha = N[C@@H](CC1CCCCC1)C(=O)O; dIva = CC[C@@](C)(N)C(=O)O; dPip = O=C(O)[C@H]1CCCCN1; Isobutyryl = CC(C)C(=O)*; Abu = CC[C@H](N)C(=O)O; Aib = CC(C)(N)C(=O)O
Measured IC50 Ratio (vs PYY(3-36)) accompanies every entry in the list below.
Just the number.

Study these solved cases before continuing.
BINDER	IC50 Ratio (vs PYY(3-36))
Ac-E[dP]R[4Pal][Cha][tBuAla]NK[Aib]TRQR[Cha]-NH2 (SMILES CC(=O)N[C@@H](CCC(=O)O)C(=O)N1CCC[C@@H]1C(=O)N[C@@H](CCCNC(=N)N)C(=O)N[C@@H](Cc1ccncc1)C(=O)N[C@@H](CC1CCCCC1)C(=O)N[C@@H](CC(C)(C)C)C(=O)N[C@@H](CC(N)=O)C(=O)N[C@@H](CCCCN)C(=O)NC(C)(C)C(=O)N[C@H](C(=O)N[C@@H](CCCNC(=N)N)C(=O)N[C@@H](CCC(N)=O)C(=O)N[C@@H](CCCNC(=N)N)C(=O)N[C@@H](CC1CCCCC1)C(N)=O)[C@@H](C)O) [Ac-[Glu23, D-Pro24, Pya(4)26, Cha27,36, Leu(Me)28, Lys30, Aib31]-PYY(23-36)]	0.48
Ac-S[dPip]RH[Cha][Cha]NL[Aib]TRQR[Cha]-NH2 (SMILES CC(=O)N[C@@H](CO)C(=O)N1CCCC[C@@H]1C(=O)N[C@@H](CCCNC(=N)N)C(=O)N[C@@H](Cc1c[nH]cn1)C(=O)N[C@@H](CC1CCCCC1)C(=O)N[C@@H](CC1CCCCC1)C(=O)N[C@@H](CC(N)=O)C(=O)N[C@@H](CC(C)C)C(=O)NC(C)(C)C(=O)N[C@H](C(=O)N[C@@H](CCCNC(=N)N)C(=O)N[C@@H](CCC(N)=O)C(=O)N[C@@H](CCCNC(=N)N)C(=O)N[C@@H](CC1CCCCC1)C(N)=O)[C@@H](C)O) [Ac-[D-Pic(2)24, Cha27,28,36, Aib31]-PYY(23-36)]	9.9
Isobutyryl-R[Abu][Cha]SNL[Aib]TRQR[Cha]-NH2 (SMILES CC[C@H](NC(=O)[C@H](CCCNC(=N)N)NC(=O)C(C)C)C(=O)N[C@@H](CC1CCCCC1)C(=O)N[C@@H](CO)C(=O)N[C@@H](CC(N)=O)C(=O)N[C@@H](CC(C)C)C(=O)NC(C)(C)C(=O)N[C@H](C(=O)N[C@@H](CCCNC(=N)N)C(=O)N[C@@H](CCC(N)=O)C(=O)N[C@@H](CCCNC(=N)N)C(=O)N[C@@H](CC1CCCCC1)C(N)=O)[C@@H](C)O) [Isobutanoyl-[Abu26, Cha27,36, Ser28, Aib31]-PYY(25-36)]	49

Then this binder:
INPUT: Kindly indicate its recorded IC50 Ratio (vs PYY(3-36)). Item: Ac-S[dP]R[dIva][Cha][Cha]NL[Aib]TRQR[Cha]-NH2 (SMILES CC[C@@](C)(NC(=O)[C@H](CCCNC(=N)N)NC(=O)[C@H]1CCCN1C(=O)[C@H](CO)NC(C)=O)C(=O)N[C@@H](CC1CCCCC1)C(=O)N[C@@H](CC1CCCCC1)C(=O)N[C@@H](CC(N)=O)C(=O)N[C@@H](CC(C)C)C(=O)NC(C)(C)C(=O)N[C@H](C(=O)N[C@@H](CCCNC(=N)N)C(=O)N[C@@H](CCC(N)=O)C(=O)N[C@@H](CCCNC(=N)N)C(=O)N[C@@H](CC1CCCCC1)C(N)=O)[C@@H](C)O) [Ac-[D-Pro24, D-Iva26, Cha27,28,36, Aib31]-PYY(23-36)]
OUTPUT: 19
